# MEASUREMENT_PARAMETERS: in ethanol, 298.15 K
MEASURED_ATTRIBUTE: solubility (mole fraction)

Data request: Requested field: solubility (mole fraction). Item: `Oc1ccccc1/C=N/CC/N=C/c1ccccc1O`
Data returned: 0.0009

* * *

# MEASUREMENT_PARAMETERS: in toluene, 288.15 K
MEASURED_ATTRIBUTE: solubility (mole fraction)
Give only the figure.

Data request: Requested field: solubility (mole fraction). Item: `Oc1ccccc1/C=N/CC/N=C/c1ccccc1O`
Data returned: 0.014

* * *

# MEASUREMENT_PARAMETERS: in methanol, 318.15 K
MEASURED_ATTRIBUTE: solubility (mole fraction)
Give only the figure.

Data request: Requested field: solubility (mole fraction). Item: `Oc1ccccc1/C=N/CC/N=C/c1ccccc1O`
Data returned: 0.00185
